Molecular target: ATP-dependent translocase ABCB1 (Homo sapiens)
Sequence (P08183 whole entry): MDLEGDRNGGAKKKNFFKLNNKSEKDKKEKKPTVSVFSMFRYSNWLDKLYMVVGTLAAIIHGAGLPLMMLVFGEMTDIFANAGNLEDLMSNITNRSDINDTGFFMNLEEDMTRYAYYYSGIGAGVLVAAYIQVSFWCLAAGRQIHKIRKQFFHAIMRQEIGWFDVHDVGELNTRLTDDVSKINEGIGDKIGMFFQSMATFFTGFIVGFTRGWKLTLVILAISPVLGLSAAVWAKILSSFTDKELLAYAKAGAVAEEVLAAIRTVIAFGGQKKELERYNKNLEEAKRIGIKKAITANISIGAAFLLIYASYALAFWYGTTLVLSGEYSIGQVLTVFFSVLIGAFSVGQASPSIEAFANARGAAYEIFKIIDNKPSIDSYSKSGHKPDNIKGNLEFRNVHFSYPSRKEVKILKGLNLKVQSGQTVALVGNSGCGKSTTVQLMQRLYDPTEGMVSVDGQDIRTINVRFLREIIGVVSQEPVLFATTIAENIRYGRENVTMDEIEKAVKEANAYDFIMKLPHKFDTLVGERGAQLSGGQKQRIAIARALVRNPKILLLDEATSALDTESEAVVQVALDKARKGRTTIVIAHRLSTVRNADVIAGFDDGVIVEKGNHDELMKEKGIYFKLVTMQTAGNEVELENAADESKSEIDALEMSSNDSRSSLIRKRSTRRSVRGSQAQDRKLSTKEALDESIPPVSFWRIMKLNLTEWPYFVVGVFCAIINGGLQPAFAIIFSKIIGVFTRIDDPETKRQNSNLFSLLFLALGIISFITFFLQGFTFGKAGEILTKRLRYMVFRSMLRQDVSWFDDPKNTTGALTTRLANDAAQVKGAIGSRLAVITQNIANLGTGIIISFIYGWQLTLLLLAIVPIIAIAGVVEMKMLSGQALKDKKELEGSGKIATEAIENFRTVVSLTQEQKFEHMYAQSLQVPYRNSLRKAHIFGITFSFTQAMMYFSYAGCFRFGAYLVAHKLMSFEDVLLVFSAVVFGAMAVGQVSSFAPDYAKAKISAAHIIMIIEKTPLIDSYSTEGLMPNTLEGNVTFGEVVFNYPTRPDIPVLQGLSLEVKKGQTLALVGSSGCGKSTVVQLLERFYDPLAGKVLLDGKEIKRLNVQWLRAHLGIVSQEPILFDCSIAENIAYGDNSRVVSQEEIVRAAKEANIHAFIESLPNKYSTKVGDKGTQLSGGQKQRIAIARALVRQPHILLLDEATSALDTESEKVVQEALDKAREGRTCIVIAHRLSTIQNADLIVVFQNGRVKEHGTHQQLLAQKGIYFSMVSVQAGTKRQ
Assay: Inhibition of p-glycoprotein in human HepG2 cells assessed as increase of doxorubicin-induced cytotoxicity at 200 nM after 72 hrs by SRB assay relative to control
Type: cell-based
Settings: hepg2, 72 h, 0.2 µM
The following molecules are listed with their measured fold change (FC) values.

compoundSmiles: COc1cc2c(cc1OC)CN(CCc1ccc(NC(=O)c3ccccc3NC(=O)c3ccc(F)cc3[N+](=O)[O-])cc1)CC2
assayedSystem: ATP-dependent translocase ABCB1 (Homo sapiens)
fold change (FC): 0.36

compoundSmiles: COc1cc2c(cc1OC)CN(CCc1ccc(NC(=O)c3cc(OC)c(OC)cc3NC(=O)c3cnc4ccccc4c3)cc1)CC2
assayedSystem: ATP-dependent translocase ABCB1 (Homo sapiens)
fold change (FC): 0.32

compoundSmiles: COc1cc2c(cc1OC)CN(CCc1ccc(NC(=O)c3ccccc3NC(=O)c3cnc4ccccc4c3)cc1)CC2
assayedSystem: ATP-dependent translocase ABCB1 (Homo sapiens)
fold change (FC): 0.38

compoundSmiles: COc1cc2c(cc1OC)CN(CCc1ccc(NC(=O)c3ccccc3NC(=O)c3ccco3)cc1)CC2
assayedSystem: ATP-dependent translocase ABCB1 (Homo sapiens)
fold change (FC): 3

Reference source for all entries: ChEMBL document CHEMBL3611986
